Here's what we have: MIC numbers for Escherichia coli ATCC 25922.

Compound | MIC, µM
CC(=O)N[C@@H](CC(C)C)C(=O)N[C@@H](CCCCN)C(=O)N[C@@H](CCCCN)C(=O)N[C@@H](CC(C)C)C(=O)N1CCC[C@H]1C(=O)N[C@@H](CCCCN)C(=O)N[C@@H](CC(C)C)C(=O)N[C@@H](CO)C(=O)N[C@@H](CCCCN)C(=O)N[C@@H](CCCCN)C(=O)N[C@@H](CC(C)C)C(=O)N[C@@H](CC(C)C)C(=O)N[C@@H](CCCCN)C(=O)N[C@@H](CC(C)C)C(N)=O [LKKLPKLSKKLLKL] | 3.54
CC(C)[C@H](N)C(=O)N[C@@H](CCCCN)C(=O)N[C@@H](CCCN=C(N)N)C(=O)N[C@@H](Cc1c[nH]c2ccccc12)C(=O)N[C@@H](CCCCN)C(=O)N[C@@H](CCCCN)C(=O)N[C@@H](Cc1ccccc1)C(=O)N[C@@H](Cc1c[nH]c2ccccc12)C(=O)N[C@@H](CCCN=C(N)N)C(=O)N[C@@H](CCCCN)C(=O)N[C@@H](Cc1c[nH]c2ccccc12)C(=O)N[C@@H](CCCCN)C(=O)N[C@@H](CCCCN)C(=O)N[C@@H](Cc1c[nH]c2ccccc12)C(=O)N[C@@H](Cc1c[nH]c2ccccc12)C(N)=O [VKRWKKFWRKWKKWW] | 8.24
CC(C)C[C@H](NC(=O)CNC(=O)[C@H](C)NC(=O)[C@@H](NC(=O)[C@H](CC(N)=O)NC(=O)[C@H](CO)NC(=O)[C@H](CC(C)C)NC(=O)[C@@H](N)CC(C)C)C(C)C)C(=O)N[C@@H](CC(C)C)C(=O)N[C@@H](CCCCN)C(=O)N[C@@H](CCC(N)=O)C(=O)N[C@@H](Cc1ccccc1)C(=O)N[C@@H](C)C(=O)N[C@@H](CCCCN)C(=O)O [LLSNVAGLLKQFAK] | 5.33
CC[C@H](C)[C@H](NC(=O)CN)C(=O)N[C@@H](CCCCN)C(=O)N[C@@H](C)C(=O)NCC(=O)N[C@H](C(=O)N[C@H](C(=O)N[C@H](C(=O)N[C@@H](CCCCN)C(=O)N[C@H](C(=O)N[C@@H](CCCCN)C(=O)N[C@@H](CCCCN)C(N)=O)[C@@H](C)CC)[C@@H](C)CC)[C@@H](C)CC)[C@@H](C)CC [GIKAGIIIKIKK] | 16
CC[C@H](C)[C@H](NC(=O)[C@H](CCCN=C(N)N)NC(=O)[C@@H](N)CCCCN)C(=O)N[C@@H](C)C(=O)N[C@@H](CCC(N)=O)C(=O)N[C@@H](CCCN=C(N)N)C(=O)N[C@H](C(=O)N[C@@H](CCCCN)C(=O)N[C@@H](CC(=O)O)C(=O)N[C@@H](Cc1ccccc1)C(=O)N[C@@H](CC(C)C)C(=O)N[C@@H](CCCN=C(N)N)C(=O)O)[C@@H](C)CC [KRIAQRIKDFLR] | 3.24

Hello, the source for this data is DBAASP, in case you need it.
